Listing: inhibition at 10 µM of selected compounds
method-summary: Antiplatelet activity against pig platelet assessed as inhibition of ADP-induced platelet aggregation at 10 uM by spectrophotometry
Type: functional
conditions: Sus scrofa
Write the answer as a number in %, unit excluded.

compound=COC(=O)[C@H](CC(C)C)N1C(=O)[C@@H]2Cc3ccccc3CN2C1(C)C display_unit=% value=31.4
compound=COC(=O)[C@H](C)N1C(=O)[C@@H]2Cc3ccccc3CN2C1(C)C display_unit=% value=10.2
compound=COC(=O)CC[C@@H](C(=O)OC)N1C(=O)[C@@H]2Cc3ccccc3CN2C1(C)C display_unit=% value=22.5
compound=COC(=O)[C@H](CC(N)=O)N1C(=O)[C@@H]2Cc3ccccc3CN2C1(C)C display_unit=% value=33.9

Q: # get_value(readout='inhibition at 10 µM', item= "COC(=O)[C@H](CS)N1C(=O)[C@@H]2Cc3ccccc3CN2C1(C)C" )
Ans: 68.9

Q: // same read-out, input: COC(=O)[C@H](C(C)O)N1C(=O)[C@@H]2Cc3ccccc3CN2C1(C)C (some centres not stated)
Ans: 46.3

Q: Subsequent entry: "COC(=O)[C@H](C(C)C)N1C(=O)[C@@H]2Cc3ccccc3CN2C1(C)C"
Ans: 35

Q: Record: "COC(=O)[C@H](CCCCNC(=O)OCc1ccccc1)N1C(=O)[C@@H]2Cc3ccccc3CN2C1(C)C"
Ans: 20.9

Q: # iterate: "COC(=O)[C@H](Cc1ccccc1)N1C(=O)[C@@H]2Cc3ccccc3CN2C1(C)C"
Ans: 44.5

Q: Please give the result for "COC(=O)[C@H](CCCNC(=N)N[N+](=O)[O-])N1C(=O)[C@@H]2Cc3ccccc3CN2C1(C)C" too.
Ans: 58.4

Q: Moving on to the next compound: CCC(C)[C@@H](C(=O)OC)N1C(=O)[C@@H]2Cc3ccccc3CN2C1(C)C (some centres not stated)
Ans: 48.2

Q: Follow-up item: "COC(=O)CN1C(=O)[C@@H]2Cc3ccccc3CN2C1(C)C"
Ans: 66.1
